- Target desc: murine GPC3-his protein (Sino Biological, Cat. No. 50989-M08B) (murine) (UniProt Q8CFZ4)
- Sequence (Q8CFZ4 25-558 limits assumed): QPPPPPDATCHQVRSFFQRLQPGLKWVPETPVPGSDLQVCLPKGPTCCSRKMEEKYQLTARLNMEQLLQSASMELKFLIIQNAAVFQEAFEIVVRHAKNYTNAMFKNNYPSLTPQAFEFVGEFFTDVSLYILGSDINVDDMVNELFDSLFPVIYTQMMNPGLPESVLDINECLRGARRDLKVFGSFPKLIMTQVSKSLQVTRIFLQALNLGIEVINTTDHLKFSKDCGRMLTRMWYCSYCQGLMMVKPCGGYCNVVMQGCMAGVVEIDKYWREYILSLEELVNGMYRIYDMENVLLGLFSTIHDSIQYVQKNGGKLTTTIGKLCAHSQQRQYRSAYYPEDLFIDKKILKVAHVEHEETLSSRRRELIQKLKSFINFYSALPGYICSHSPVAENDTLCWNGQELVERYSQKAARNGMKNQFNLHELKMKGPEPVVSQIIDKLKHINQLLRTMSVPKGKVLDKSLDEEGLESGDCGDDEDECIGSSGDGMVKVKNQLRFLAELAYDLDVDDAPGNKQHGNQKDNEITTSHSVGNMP
- Method description: ELISA, coated murine GPC3-His
The entries below are paired with their reported OD450 at 1 nM antibody.
Answer with a number only, understood to be in OD450 nm.

[in] Fill in the blank: the reported OD450 at 1 nM antibody of F1.73.9 human-murine chimeric antibody (antibody, human IgG1, kappa, V domains shown) VH: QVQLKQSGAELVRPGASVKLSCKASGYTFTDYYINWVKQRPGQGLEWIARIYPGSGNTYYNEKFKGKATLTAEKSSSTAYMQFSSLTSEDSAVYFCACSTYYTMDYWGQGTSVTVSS VL: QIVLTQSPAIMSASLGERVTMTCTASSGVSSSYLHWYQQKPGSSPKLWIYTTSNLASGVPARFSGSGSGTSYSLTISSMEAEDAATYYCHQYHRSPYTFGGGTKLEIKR is ____.
[out] 0.41

[in] Now the same for F1.57.21 human-murine chimeric antibody (antibody, human IgG1, kappa, V domains shown) VH: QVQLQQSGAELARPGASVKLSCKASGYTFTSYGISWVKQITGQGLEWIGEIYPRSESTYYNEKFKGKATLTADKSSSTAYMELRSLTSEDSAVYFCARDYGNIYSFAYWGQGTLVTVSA VL: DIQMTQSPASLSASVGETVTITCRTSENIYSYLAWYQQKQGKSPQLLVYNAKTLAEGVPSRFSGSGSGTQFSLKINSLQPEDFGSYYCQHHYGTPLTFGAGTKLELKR
[out] 0.2

--- query ---
[in] Item under review: F1.115.8 human-murine chimeric antibody (antibody, human IgG1, kappa, V domains shown) VH: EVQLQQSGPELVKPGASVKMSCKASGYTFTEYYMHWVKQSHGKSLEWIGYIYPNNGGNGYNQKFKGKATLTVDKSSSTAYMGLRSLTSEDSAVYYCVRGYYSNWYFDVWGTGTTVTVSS VL: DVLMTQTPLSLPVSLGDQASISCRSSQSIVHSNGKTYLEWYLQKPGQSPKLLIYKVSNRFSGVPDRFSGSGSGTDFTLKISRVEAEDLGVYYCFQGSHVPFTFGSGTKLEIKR . Reported OD450 at 1 nM antibody?
[out] 0.4
